Tested on: NK-YS (IL-2 2.5 ng/mL);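 further: normalised to DMSO-only wells as negative and benzethonium chloride as positive control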
method: percent inhibition of viability; higher = more inhibition
condition: 72 h; 0.25 nM
readout.name: percent inhibition of viability (%)
Field format: number, assumed %, no unit text.

Worked set:
compound="CCOc1cc2ncc(C#N)c(Nc3ccc(F)c(Cl)c3)c2cc1NC(=O)/C=C/CN(C)C [Pelitinib] (max concentration tested 2500 nM)" readout_name="percent inhibition of viability" u=% result_value=0.78
compound="CCNC(=O)Nc1ccc(-c2nc3c(c(N4CCOC[C@@H]4C)n2)CCN(C2COC2)C3)cc1 [RG-7603] (max concentration tested 2500 nM)" readout_name="percent inhibition of viability" u=% result_value=-8.96
compound="CN1CCN(C2CCN(C(=O)Nc3cc(Oc4ccc(NC(=O)C5(C(=O)Nc6ccc(F)cc6)CC5)c(F)c4)ccn3)CC2)CC1 [Golvatinib] (max concentration tested 2500 nM)" readout_name="percent inhibition of viability" u=% result_value=-10.5

Form field: reported percent inhibition of viability of O=C(c1cccc(Cl)c1F)N1CCN(Cc2cccc(Nc3nccs3)n2)CC1 [MK-8745] (max concentration tested 2500 nM)
-0.85

Next entry: OCCn1cc(-c2cnc3nnn(Cc4ccc5ncccc5c4)c3n2)cn1 (max concentration tested 2500 nM)
-3.62

Next entry: COc1cc(C(=O)NC2CCN(C)CC2)c(F)cc1Nc1ncc2c(n1)N(C1CCCC1)CC(F)(F)C(=O)N2C [TAK-960] (max concentration tested 2500 nM)
-3.49
